// provenance: PubChem BioAssay

EXPERIMENT NOTES: growth inhibitors of H69AR lung tumor, primary screen, human, duplicate replicates (AID 580);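 note: 100% = mean luminescence of untreated wells and 0% = no signal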
CONDITION INFO: H69AR lung tumor cells viability, ATP luminescence, 72 h; at 10 µM; active compounds read low
Quick list: viability per entry.

{"COMPOUND": "CCCCOC(=O)n1c(SCC(=O)N(CC)CC)nc2ccccc21", "UNIT STRING": "%", "viability": 91.4}
{"COMPOUND": "Cc1cc(NC(=O)Cn2cnc3c(cnn3C(C)(C)C)c2=O)no1", "UNIT STRING": "%", "viability": 91.9}
{"COMPOUND": "O=C(c1ccc(Cl)cc1)N1CCCCC(Sc2nnc(-c3ccc4c(c3)OCO4)o2)C1=O (stereo not given)", "UNIT STRING": "%", "viability": 88.5}
{"COMPOUND": "O=C1CCN(C(=O)c2ccccc2)C2CCCCC12 (stereo not given)", "UNIT STRING": "%", "viability": 90.3}
{"COMPOUND": "O=C(OCc1nnc(-c2ccccc2)o1)C1=COCCO1", "UNIT STRING": "%", "viability": 92.1}
